Target: human Orexin-2 receptor (Homo sapiens)
Construct: expressed in transfected cells; host or cells: HEK293 cells (transient transfection, Genejuice); membranes
Sequence (O43614 1-444): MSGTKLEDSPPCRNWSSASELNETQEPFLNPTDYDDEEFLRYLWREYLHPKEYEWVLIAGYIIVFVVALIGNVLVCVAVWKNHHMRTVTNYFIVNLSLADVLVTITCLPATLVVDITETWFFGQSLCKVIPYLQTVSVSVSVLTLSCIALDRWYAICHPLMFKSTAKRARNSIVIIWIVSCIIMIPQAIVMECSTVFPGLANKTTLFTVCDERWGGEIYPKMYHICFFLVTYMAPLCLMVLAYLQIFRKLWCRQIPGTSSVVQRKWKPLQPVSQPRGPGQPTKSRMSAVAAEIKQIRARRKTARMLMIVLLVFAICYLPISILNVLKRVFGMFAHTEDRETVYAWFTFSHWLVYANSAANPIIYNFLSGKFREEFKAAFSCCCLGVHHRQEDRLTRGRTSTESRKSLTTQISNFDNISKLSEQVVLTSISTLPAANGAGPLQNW
Test: 3H-EMPA radioligand binding assay
Details: 3H-EMPA displacement, membranes of HEK293 cells transfected with human Orexin-2 receptor; KI by Cheng-Prussoff; read-out: OX2 pKi ave (converted)
Measurement Kind: Ki (µM)
Entry rule: numbers only, all in µM.

Example results:
CSc1cccc(N2C(=O)N(Cc3cccc(Br)c3)c3ccccc3S2(=O)=O)c1 [Example 9] : 0.0355
COc1ccc(N2C(=O)N(Cc3cccc(Cl)c3F)c3ccccc3S2(=O)=O)cc1OC [Example 71] : 0.00708
COc1ccc(N2C(=O)N(Cc3ccc(Cl)cc3F)c3ccncc3S2(=O)=O)cc1OC [Example 92] : 0.741
COc1ccc(N2C(=O)N(Cc3ccc(F)cc3Cl)c3ccccc3S2(=O)=O)cc1OC [Example 21] : 0.0234
COc1cc(N2C(=O)N(Cc3c(F)cc(F)cc3Cl)c3ccccc3S2(=O)=O)cnc1OC [Example 155] : 0.00174

In plain terms, COc1ccc(N2C(=O)N(Cc3ccc(C)cc3)c3ccccc3S2(=O)=O)cc1OC [Example 7] has a documented Ki of 0.0372

In plain terms, COc1cc(F)c(CN2C(=O)N(c3cccc(SC)c3)S(=O)(=O)c3ccccc32)c(F)c1 [Example 109] has a documented Ki of 0.00324

In plain terms, CC1(CN2C(=O)N(Cc3c(F)cccc3Cl)c3ccccc3S2(=O)=O)COC1 [Example 118] has a documented Ki of 0.372

In plain terms, O=C1N(Cc2c(F)cccc2Cl)c2ccccc2S(=O)(=O)N1c1ccccc1 [Example 26] has a documented Ki of 0.0794

###

Target: human Orexin-2 receptor (Homo sapiens, UniProt O43614)
Construct: expressed in transfected cells; host or cells: HEK293 cells (transient transfection, Genejuice); membranes
Assay: 3H-EMPA radioligand binding assay
Settings: 3H-EMPA displacement, membranes of HEK293 cells transfected with human Orexin-2 receptor; KI by Cheng-Prussoff; read-out: OX2 pKi ave (converted)
Classes by Ki: c1 (below 3 nM), c2 (3 nM to below 20 nM), c3 (20 nM or more)

Examples from the recorded data:
COc1cc(F)c(CN2C(=O)N(c3ccc(C)c(C)n3)S(=O)(=O)c3cccnc32)c(F)c1 : c1
O=C1N(Cc2c(F)cc(F)cc2F)c2ccccc2S(=O)(=O)N1c1ccc2ncsc2c1 : c2
COc1cc(F)c(CN2C(=O)N(c3ccc(OC)nc3)S(=O)(=O)c3ccccc32)c(F)c1 : c2

Q: Form: Item = "Cc1ccc(C)c(N2C(=O)N(Cc3c(F)cccc3Cl)c3ccccc3S2(=O)=O)c1" ; Class = ?
A: c3

Q: Form: Item = "Cc1cc(CN2C(=O)N(Cc3c(F)cccc3Cl)c3ccccc3S2(=O)=O)n(C)n1" ; Class = ?
A: c3
